src = patent US4727072A

Please go through the items and note down their SHR δMAP.
Tested on: spontaneously hypertensive rats
assay: Spontaneously Hypertensive Rat (SHR) test, arterial pressure
Format: in vivo, adult spontaneously hypertensive rats (Charles Rivers)
condition_set: dose 30 (mg/kg), po; SH rats; fall of mean arterial pressure

* CC(C)(C)COCC(CN(Cc1ccccc1)c1cccc(C(F)(F)F)c1)N1CCCC1.Cl (centres unmarked) | -28 mm of Hg

// batch mode: one SHR δMAP value per listed entry
1. CN(C)c1ccc(CN(CC(COCC(C)(C)C)N2CCCC2)c2c(Cl)cccc2Cl)cc1 (centres unmarked)
2. Cc1cccc(C)c1N(Cc1ccccc1)CC(COCC(C)(C)C)N1CCCC1.Cl (centres unmarked)

stdout:
1: -14 mm of Hg; 2: -21 mm of Hg

* * *

Tested on: spontaneously hypertensive rats
assay: Spontaneously Hypertensive Rat (SHR) test, arterial pressure
Format: in vivo, adult spontaneously hypertensive rats (Charles Rivers)
condition_set: dose 30 (mg/kg), po; SH rats; fall of mean arterial pressure
Experimental: The activity of compounds of formula (I) for the treatment of hypertension was determined using the Spontaneously Hypertensive Rat (SHR) test as described below. In this test, the arterial pressure of adult spontaneously hypertensive rats (Charles Rivers) is monitored directly via an aortic cannula. The SH rats are anesthetized with an inhalation anesthetic (ether). The left carotid artery is isolated and cannulated. […] The arterial pressure and heart rate are monitored for a minimum of 24 hr. […]
assay_endpoint: SHR δMAP

// batch mode: one SHR δMAP value per listed entry
1. CC(C)(C)COCC(CN(CC1CCCCC1)c1c(Cl)cccc1Cl)N1CCCC1 (stereo not shown) [Example 12]
2. CC(C)(C)COCC(CN(Cc1ccccc1)c1c(Cl)cccc1Cl)N1CCCC1 (stereo not shown) [Example 6]
3. COc1cccc(N(Cc2ccccc2)CC(COCC(C)(C)C)N2CCCC2)c1.O=C(O)/C=C/C(=O)O (stereo not shown) [Example 2d]
4. CC1(COCC(CN(Cc2ccccc2)c2c(Cl)cccc2Cl)N2CCCC2)CCCCC1.Cl (stereo not shown) [Example 1e]

stdout:
-25 mm of Hg
-33 mm of Hg
-29 mm of Hg
-60 mm of Hg

* * *

Test system: spontaneously hypertensive rats
assay: Spontaneously Hypertensive Rat (SHR) test, arterial pressure
Assay type: in vivo, adult spontaneously hypertensive rats (Charles Rivers)
condition_set: dose 30 (mg/kg), po; SH rats; fall of mean arterial pressure
assay_endpoint: SHR δMAP

Solved cases below.
* CC(C)(C)OCC(CN(Cc1ccccc1)c1c(Cl)cccc1Cl)N1CCCC1 (centres unmarked) | -20 mm of Hg
* CC(C)(C)COCC(CN(Cc1ccccc1)c1ccccc1)N1CCCC1 (centres unmarked) | -13 mm of Hg
* CC(C)(C)COCC(CN(Cc1ccncc1)c1c(Cl)cccc1Cl)N1CCCC1.Cl.Cl (centres unmarked) | -37 mm of Hg
* COc1ccc(CN(CC(COCC(C)(C)C)N2CCCC2)c2c(Cl)cccc2Cl)cc1OC.Cl (centres unmarked) | -15 mm of Hg

Here's the next entry for you.
stdin: Look at this molecule and give its reported SHR δMAP. CC(C)(C)COCC(CN(Cc1ccccc1)c1ccccc1Cl)N1CCCC1.Cl (centres unmarked)
stdout: -6 mm of Hg
